- SYSTEM_TESTED: MALT1 (Homo sapiens, UniProt Q9UDY8)
- Construct: endogenous in cells
- Sequence (Q9UDY8 1-824): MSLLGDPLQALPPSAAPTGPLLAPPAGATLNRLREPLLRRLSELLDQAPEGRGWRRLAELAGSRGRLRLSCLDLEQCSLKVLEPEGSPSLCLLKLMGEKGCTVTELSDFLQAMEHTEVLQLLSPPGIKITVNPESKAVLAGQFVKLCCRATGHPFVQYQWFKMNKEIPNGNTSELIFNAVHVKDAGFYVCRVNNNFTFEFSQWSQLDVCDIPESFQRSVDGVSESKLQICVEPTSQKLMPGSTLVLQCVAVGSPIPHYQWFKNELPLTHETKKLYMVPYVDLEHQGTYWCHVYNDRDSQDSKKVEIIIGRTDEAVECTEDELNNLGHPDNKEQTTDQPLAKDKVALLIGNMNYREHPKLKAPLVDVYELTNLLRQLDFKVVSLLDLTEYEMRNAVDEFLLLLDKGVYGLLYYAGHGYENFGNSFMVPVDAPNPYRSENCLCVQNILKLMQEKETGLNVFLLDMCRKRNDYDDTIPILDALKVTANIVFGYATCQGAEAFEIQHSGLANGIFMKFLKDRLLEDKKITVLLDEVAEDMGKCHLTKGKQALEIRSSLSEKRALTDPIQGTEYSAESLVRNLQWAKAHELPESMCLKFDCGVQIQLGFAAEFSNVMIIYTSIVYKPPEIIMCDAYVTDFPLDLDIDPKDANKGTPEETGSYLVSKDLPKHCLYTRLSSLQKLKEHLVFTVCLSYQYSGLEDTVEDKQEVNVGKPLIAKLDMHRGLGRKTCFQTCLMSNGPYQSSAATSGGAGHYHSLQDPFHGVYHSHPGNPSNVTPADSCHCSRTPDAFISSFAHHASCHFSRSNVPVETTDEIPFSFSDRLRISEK
- PROTOCOL_TEXT: In cell MALT1 inhibition reporter system (Raji GloSensor split luciferase reporter cells, PMA/ionomycin)
- CONDITION_LABEL: Raji MALT1-reporter cells pre-treated 30 min with inhibitor, then PMA/ionomycin; luminescence
pIC50: −log10 of the molar value.
READOUT_KIND: pIC50

Known results for molecules:
INSERT INTO results (molecule, readout_kind, number) VALUES
  ('COCC(C)N(C)c1c(NC(=O)Nc2cnc(-n3nccn3)c(Cl)c2)cnc2scnc12 (centres unmarked) [Example 40]', 'pIC50', 6.33),
  ('O=C(Nc1cnc(-n2nccn2)c(Cl)c1)Nc1cnc2ccccc2c1C(F)(F)F [Example 26]', 'pIC50', 7.39),
  ('COc1ccc2ncc(NC(=O)Nc3cnc(-n4nccn4)c(Cl)c3)c(C3CC3)c2c1 [Example 11]', 'pIC50', 7.89);

A. CC(O)c1c(NC(=O)Nc2cnc(-n3nccn3)c(Cl)c2)cnc2ccccc12 (centres unmarked) [Example 32]
B. O=C(Nc1cnc(-n2nccn2)c(Cl)c1)Nc1cnc2scnc2c1N1CCC1 [Example 41]
Q: Between item A and item B , which reported pIC50 is smaller? Output the label that corresponds to your choice.
Result: B
(B: 6.03, A: 7.55)

1. O=C(Nc1cnc(-n2nccn2)c(Cl)c1)Nc1cnc2ccccc2c1Br [Example 31]
2. COCCN(C)c1c(NC(=O)Nc2cnc(-n3nccn3)c(Cl)c2)cnc2scnc12 [Example 39]
3. Cc1nc2c(C3CC3)c(NC(=O)Nc3ccnc(C(F)(F)F)c3)cnc2s1 [Example 33]
Q: Highest pIC50 first, then in falling order down to the smallest. Put the labels in the order asked and list them.
Result: 1, 2, 3
(1: 7.48, 2: 7.01, 3: 6.61)
